pIC50: −log10 of the molar value.
Consider the following pIC50 data for Cytochrome P450 2C19 (Homo sapiens, UniProt P33261), collected from several reports.

Given smiles: CC[C@@H](C#N)NC(=O)c1ccc(-c2nc(Nc3cnn(CCO)c3)ncc2C)cc1
System: Cytochrome P450 2C19 (Homo sapiens, UniProt P33261)
pIC50: < 4.30
--
Given smiles: C=CC(=O)N1CCC(Cn2c(=O)n(-c3ccc(Oc4ccccc4)cc3)c3c(N)ncnc32)CC1
System: Cytochrome P450 2C19 (Homo sapiens, UniProt P33261)
pIC50: < 5.00
--
Given smiles: COc1cc(N2CCc3nc(NC(=O)NCC(=O)O)sc3C2)nc(OC)n1
System: Cytochrome P450 2C19 (Homo sapiens, UniProt P33261)
pIC50: < 4.70
--
Given smiles: NC(=O)c1cc(Cc2nnc(Nc3ccc(Cl)cc3)c3ccccc23)ccn1
System: Cytochrome P450 2C19 (Homo sapiens, UniProt P33261)
pIC50: 4.82
--
Given smiles: CCCCOCCOc1ccc(-c2ccc(OC)c(/C=C/C(=O)Nc3ccc([S@+]([O-])Cc4c(C)ncn4CC)cc3)c2)cc1
System: Cytochrome P450 2C19 (Homo sapiens, UniProt P33261)
pIC50: < 4.30
--
Given smiles: Nc1ncnc2[nH]cc(C(=O)c3ccc(Nc4ccc(C5CC5)nc4)nc3F)c12
System: Cytochrome P450 2C19 (Homo sapiens, UniProt P33261)
pIC50: < 5.00
--
Given smiles: CCC(CC)Nc1ncnc2[nH]cc(C(=O)c3ccc(Nc4ccc(OC)nc4)nc3F)c12
System: Cytochrome P450 2C19 (Homo sapiens, UniProt P33261)
pIC50: 5.00 to 5.30

Enquiry: Report pIC50 for COc1ccc(CCNC(=O)c2ccc(-c3ncccc3Cl)cc2)cc1OC tested on Cytochrome P450 2C19 (Homo sapiens, UniProt P33261).
Return: 4.57
